# target: PI3-kinase p110-alpha/p85-alpha (Homo sapiens)
# Sequence (P27986 whole entry): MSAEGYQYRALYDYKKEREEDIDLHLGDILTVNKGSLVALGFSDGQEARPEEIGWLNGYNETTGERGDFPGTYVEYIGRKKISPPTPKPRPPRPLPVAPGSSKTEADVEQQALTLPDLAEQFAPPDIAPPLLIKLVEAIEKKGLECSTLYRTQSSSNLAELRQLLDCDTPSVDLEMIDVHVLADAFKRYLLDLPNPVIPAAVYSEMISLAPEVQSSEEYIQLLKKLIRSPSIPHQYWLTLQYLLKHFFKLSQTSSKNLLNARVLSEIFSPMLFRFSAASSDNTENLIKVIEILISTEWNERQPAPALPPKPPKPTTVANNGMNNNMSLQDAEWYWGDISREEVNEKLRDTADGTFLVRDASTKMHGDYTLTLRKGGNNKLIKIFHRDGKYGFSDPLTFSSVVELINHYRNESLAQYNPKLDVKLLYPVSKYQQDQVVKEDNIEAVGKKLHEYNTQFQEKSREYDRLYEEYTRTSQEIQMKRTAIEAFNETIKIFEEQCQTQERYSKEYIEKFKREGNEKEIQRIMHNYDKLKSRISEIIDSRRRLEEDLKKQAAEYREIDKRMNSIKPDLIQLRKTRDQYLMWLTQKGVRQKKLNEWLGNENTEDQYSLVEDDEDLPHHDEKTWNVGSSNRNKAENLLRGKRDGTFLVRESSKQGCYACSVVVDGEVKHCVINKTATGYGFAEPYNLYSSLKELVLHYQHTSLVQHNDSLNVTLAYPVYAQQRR
# Sequence (P42336 whole entry): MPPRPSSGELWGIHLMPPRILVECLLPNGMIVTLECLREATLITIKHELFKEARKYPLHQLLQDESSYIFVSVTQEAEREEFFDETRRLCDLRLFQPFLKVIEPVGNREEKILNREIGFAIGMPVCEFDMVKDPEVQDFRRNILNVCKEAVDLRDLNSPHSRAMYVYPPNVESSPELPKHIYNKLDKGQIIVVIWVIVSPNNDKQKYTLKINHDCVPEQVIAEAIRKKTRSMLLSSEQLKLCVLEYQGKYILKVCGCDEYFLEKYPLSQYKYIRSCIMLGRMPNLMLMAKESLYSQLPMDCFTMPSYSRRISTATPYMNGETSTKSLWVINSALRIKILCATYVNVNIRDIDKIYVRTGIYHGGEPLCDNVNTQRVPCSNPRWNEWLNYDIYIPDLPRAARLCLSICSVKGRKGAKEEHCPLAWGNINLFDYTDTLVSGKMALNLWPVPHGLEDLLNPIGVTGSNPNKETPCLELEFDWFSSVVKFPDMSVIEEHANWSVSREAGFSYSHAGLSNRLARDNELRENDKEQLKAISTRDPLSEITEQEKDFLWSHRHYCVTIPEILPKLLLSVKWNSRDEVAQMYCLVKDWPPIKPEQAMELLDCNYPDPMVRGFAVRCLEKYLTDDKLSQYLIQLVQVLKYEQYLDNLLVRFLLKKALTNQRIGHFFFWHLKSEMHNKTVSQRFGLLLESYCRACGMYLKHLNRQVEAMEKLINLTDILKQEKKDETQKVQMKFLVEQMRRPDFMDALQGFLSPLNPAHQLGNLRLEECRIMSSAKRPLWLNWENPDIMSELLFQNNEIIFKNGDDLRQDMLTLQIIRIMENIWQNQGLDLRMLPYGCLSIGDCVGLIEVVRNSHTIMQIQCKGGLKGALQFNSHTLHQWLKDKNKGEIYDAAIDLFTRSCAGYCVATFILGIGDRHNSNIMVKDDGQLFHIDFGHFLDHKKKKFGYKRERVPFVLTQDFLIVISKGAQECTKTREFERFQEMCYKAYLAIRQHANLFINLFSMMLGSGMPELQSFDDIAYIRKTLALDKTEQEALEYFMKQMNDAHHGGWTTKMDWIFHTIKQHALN
# measurement protocol: Inhibition of alexa fluor 647-labeled kinase tracer 314 binding to recombinant human full-length N-terminal His6-tagged p110alpha/p85alpha expressed in baculovirus expression system by TR-FRET assay
measured property: Ki (nM)

Guide cases for Ki, answers given:
# compound structure, endpoint unit, Ki
measured = [
    ("Cc1cc(N)ncc1-c1nc2c(c(N3CCOC[C@H]3C)n1)C[C@@H]1COCCN21", "nM", 2760),
    ("C[C@@H]1COCCN1c1nc(-c2cnc(N)cn2)nc2c1C[C@@H]1COCCN21", "nM", 1690),
    ("C[C@@H]1COCCN1c1nc(-c2ccc(N)nc2)nc2c1C[C@H]1COCCN21", "nM", 923),
    ("Nc1cc(C(F)(F)F)c(-c2nc(N3CCCCC3)c3c(n2)N2CCOC[C@@H]2C3)cn1", "nM", 2830),
    ("Nc1ccc(-c2nc(N3CC4CCC(C3)O4)c3c(n2)N2CCOC[C@H]2C3)cn1", "nM", 1410),
]

A = Nc1ccc(-c2nc(N3C4CCC3COC4)c3c(n2)N2CCOC[C@H]2C3)cn1
B = C[C@@H]1COCCN1c1nc(-c2ccc(N)nc2)nc2c1C[C@@H]1COCCN21
C = Nc1cc(C(F)(F)F)c(-c2nc(N3CCOCC3)c3c(n2)N2CCCC[C@H]2C3)cn1
D = Nc1cc(C(F)(F)F)c(-c2nc(N3CCOCC3)c3c(n2)N2CCOC[C@H]2C3)cn1
Exercise: Order the entries by their reported Ki, beginning at the minimum. Lab note: record answer as labels in requested order.
Solution: C, D, A, B

---

# target: CYP1A1 (Homo sapiens)
# Sequence (P04798 whole entry): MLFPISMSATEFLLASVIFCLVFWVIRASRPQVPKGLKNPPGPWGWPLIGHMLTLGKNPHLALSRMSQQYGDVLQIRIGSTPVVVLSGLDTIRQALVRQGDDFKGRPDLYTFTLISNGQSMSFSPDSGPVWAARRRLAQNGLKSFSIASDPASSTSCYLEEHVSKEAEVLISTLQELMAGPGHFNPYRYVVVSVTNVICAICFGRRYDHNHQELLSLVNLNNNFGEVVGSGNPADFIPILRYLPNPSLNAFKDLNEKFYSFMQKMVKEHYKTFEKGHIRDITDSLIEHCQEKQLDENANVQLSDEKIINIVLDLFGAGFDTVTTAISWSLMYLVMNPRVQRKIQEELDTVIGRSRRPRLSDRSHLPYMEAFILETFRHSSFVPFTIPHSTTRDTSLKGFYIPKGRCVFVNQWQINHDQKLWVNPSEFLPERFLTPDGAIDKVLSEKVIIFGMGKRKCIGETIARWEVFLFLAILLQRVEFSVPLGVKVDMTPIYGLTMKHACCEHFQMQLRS
# measurement protocol: Drug metabolism assessed as recombinant human CYP1A1-mediated compound hydrolysis by measuring parent compound remaining incubated for 60 mins by LC-HRMS analysis
# Assay type: ADME
# condition set: read-out: Stability
measured property: remaining at 1 h (%)
State the answer as a number, implicitly in %.

Exercise: Enter reported remaining at 1 h observed with CYP1A1 (Homo sapiens) for "C[C@@H]1COCCN1c1nc(-c2cnc(N)nc2)nc2c1C[C@@H]1COCCN21"
Solution: 73.3

---

# target: PI3-kinase p110-alpha/p85-alpha (Homo sapiens)
# measurement protocol: Inhibition of alexa fluor 647-labeled kinase tracer 314 binding to recombinant human full-length N-terminal His6-tagged p110alpha/p85alpha expressed in baculovirus expression system by TR-FRET assay
pKi: −log10 of the molar value.
measured property: pKi

# compound structure, pKi
data = [
    ("CC1(C)COCCN1c1nc(-c2ccc(N)nc2)nc2c1C[C@@H]1COCCN21", 6.42),
]

a = Nc1cc(C(F)(F)F)c(-c2nc(N3CCCCC3)c3c(n2)N2CCOC[C@H]2C3)cn1
b = Nc1cc(C(F)(F)F)c(-c2nc(N3CCOCC3)c3c(n2)N2CCCC[C@@H]2C3)cn1
Exercise: Which of the two gives a bigger number for pKi: a or b ? Mark your selection by writing its label.
Solution: b
(b: 7.32, a: 6.86)

---

# target: CYP1A2 (Homo sapiens)
# Sequence (P05177 whole entry): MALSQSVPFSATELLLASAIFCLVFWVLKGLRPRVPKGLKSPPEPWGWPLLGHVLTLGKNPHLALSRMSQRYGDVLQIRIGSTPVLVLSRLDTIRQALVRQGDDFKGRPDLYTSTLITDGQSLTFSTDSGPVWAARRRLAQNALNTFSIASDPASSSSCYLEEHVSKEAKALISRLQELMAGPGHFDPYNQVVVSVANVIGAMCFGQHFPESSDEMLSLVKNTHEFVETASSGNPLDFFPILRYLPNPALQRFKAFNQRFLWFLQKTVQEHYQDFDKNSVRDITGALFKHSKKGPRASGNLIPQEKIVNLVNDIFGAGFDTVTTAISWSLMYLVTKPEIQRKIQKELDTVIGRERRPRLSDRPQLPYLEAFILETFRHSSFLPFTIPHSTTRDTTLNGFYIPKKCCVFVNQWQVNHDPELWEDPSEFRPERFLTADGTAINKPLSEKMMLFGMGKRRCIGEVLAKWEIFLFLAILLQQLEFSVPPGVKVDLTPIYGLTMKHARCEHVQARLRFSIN
# measurement protocol: Substrate activity at recombinant human CYP1A2 expressed in baculovirus infected insect cells assessed as parent compound remaining at 1 uM incubated for 60 mins in absence of NADP+-regenerating system by LC-MS analysis
# Assay type: ADME
# condition set: read-out: Stability
measured property: remaining at 1 h, 1 µM (%)

# compound structure, endpoint unit, remaining at 1 h, 1 µM
rows = [
    ("C[C@@H]1COCCN1c1nc(-c2ccc(N)nc2)nc2c1C[C@@H]1COCCN21", "%", 94),
    ("C[C@@H]1COCCN1c1nc(-c2cnc(N)cn2)nc2c1C[C@@H]1COCCN21", "%", 91),
    ("C[C@@H]1COCCN1c1nc(-c2cnc(N)nc2)nc2c1C[C@@H]1COCCN21", "%", 91),
]

Hello, the source for this data is ChEMBL document CHEMBL4321805, in case you need it.
